Test system: COX-2 mRNA
Experiment: COX mRNA levels
Type: cell-based
Conditions: Control 1.0
For each of the molecules below, state its COX-2 mRNA level relative to control.
Just the number, please, no unit attached.

Need COX-2 mRNA level relative to control of `CCN(CC)[N+]([O-])=NOCOC(=O)c1ccccc1OC(C)=O` , thanks.
6.5

And the next one, CC(C)N[N+]([O-])=N[O-].[Na+] [Compound 1, reference compound] ?
1.2

And then CCN(CC)[N+]([O-])=N[O-].[Na+] [DEA/NO, reference compound] , what is it?
6.0

# iterate: `CC(=O)Oc1ccccc1C(=O)OCON=[N+]([O-])NC(C)C`
0.8

====

Would you kindly list IC50 for each of these compounds?
Test system: MCF-7 cells
Experiment: MTT cell survival, MCF-7
Format: cell-based, human
Details: MTT assay

Observed IC50 on MCF-7 cells for `CC(=O)Oc1ccccc1C(=O)OCON=[N+]([O-])NC(C)C` , please.
90 µM

Next compound: `CCN(CC)[N+]([O-])=NOCOC(=O)c1ccccc1OC(C)=O`
120 µM

Numbers sourced from patent US8633177B2.
